Tested on: ACHN renal
Test: NCI-60 one-dose screen, 48 h (100 = growth as untreated, 0 = no growth, -100 = all killed)
Settings: 10 µM
The panel holds about 83,000 compounds, 20% with a hit somewhere; the sample as a whole holds those more often.
Criterion: growth strictly under 60%. Met: 1 (yes). Not met: 0 (no).

COMPOUND | CATEGORY_LABEL
O=c1c2cccc3c(Nc4ccc(Br)cn4)ccc(c32)c2nc3ccccc3n12 | 0 (no)
COc1cc(-c2nc3ccc(C)cc3[nH]2)ccc1OCc1nnc(-c2ccc(CC(C)C)cc2)o1 | 0 (no)
CCCCN(CCCC)c1ccc(C(=NC(C)CCCN(CC)CC)c2ccc(N(C)C)cc2)cc1 (stereo not drawn) | 1 (yes)
COc1ccc(-c2nnc(N3CCN(C(=O)CN4CCN(c5ccc(Cl)cc5)CC4)CC3)nc2-c2ccc(OC)cc2)cc1 | 0 (no)
COc1cc(CSc2nc3ccc(Cl)cc3c(=O)n2-c2ccccc2)cc(OC)c1OC | 0 (no)
COc1ccc(-c2nc(-c3nc4ccc(C)cc4[nH]3)c3ccccn23)cc1 | 1 (yes)
COC(=O)C1(C(=O)OC)C2C(=O)C3C(C21)C3(C(=O)OC(C)(C)C)C(=O)OC(C)(C)C (stereo not drawn) | 0 (no)
COc1ccc(-c2cn[nH]c2-c2cc(OC)c(OC)c(OC)c2)cc1 | 1 (yes)
CCOC(=O)[C@@H]1[C@H](c2ccccc2)[C@H]([N+](=O)[O-])[C@H](c2cn(-c3ccccc3)nc2C)N1Cc1ccccc1 | 0 (no)
Fc1cc(-c2ncc(-c3cc(F)c(F)c(F)c3)c(NC3CCCCCC3)n2)cc(F)c1F | 0 (no)
Cc1ccc2oc(=O)cc(/C(=C3/C=CC=N3)c3ccc[nH]3)c2c1 | 1 (yes)
C[C@H](NC(=O)[C@@H]1CSSC[C@@H](NC(=O)Cc2nc3ccccc3cc2O)C(=O)NCC(=O)N1C)c1ccccc1 | 0 (no)
Nc1nc2c(nnn2C2CC(O)C(CO)O2)c(=O)[nH]1 (stereo not drawn) | 1 (yes)
O=C1/C(=C/c2ccc(O)cc2)CSc2ccc(Cl)cc21 | 0 (no)
Cc1c(C(=O)N[C@H](CO)Cc2ccccc2)[nH]c2ccc(Cl)cc2c1=O | 0 (no)
COc1ccc(-c2nnc(COc3ccc(NC(=O)Nc4ccccc4)cc3F)o2)cc1 | 0 (no)
COC(=O)[C@]12CC[C@@H](C)[C@H](C)[C@@H]1C1=CC[C@@H]3[C@@]4(C)C[C@@H](O)[C@H](O)[C@@](C)(CO)[C@@H]4[C@H](O)C[C@@]3(C)[C@]1(C)CC2 | 1 (yes)
COc1ccc(N2CCN(c3nc(-c4ccccc4)c(C#N)c(=O)[nH]3)CC2)cc1 | 0 (no)
